Tested on: SW684 (Other Solid Carcinomas)
Assay: combination Emax (second highest fraction inhibited in the dose matrix, 72 h); higher = more inhibition; extreme values may be limits of the assay

MOLECULE	combination Emax
CN(CCO)CC[C@H](CSc1ccccc1)Nc1ccc(S(=O)(=O)NC(=O)c2ccc(N3CCC([C@@H](O)c4ccccc4-c4ccc(Cl)cc4)CC3)cc2)cc1S(=O)(=O)C(F)(F)F [AZD4320] + C[C@@H]1COCCN1C2=NC(=NC(=C2)C3(CC3)[S@](=N)(=O)C)C4=C5C=CNC5=NC=C4 [AZD6738] (first compound max 1 µM, 7x7, partner max 10 µM)	0.537
CN(CCO)CC[C@H](CSc1ccccc1)Nc1ccc(S(=O)(=O)NC(=O)c2ccc(N3CCC([C@@H](O)c4ccccc4-c4ccc(Cl)cc4)CC3)cc2)cc1S(=O)(=O)C(F)(F)F [AZD4320] + Cn1cnc2c(F)c(Nc3ccc(Br)cc3Cl)c(C(=O)NOCCO)cc21 [Selumetinib] (first compound max 1 µM, 7x7, partner max 3 µM)	0.609
CN(CCO)CC[C@H](CSc1ccccc1)Nc1ccc(S(=O)(=O)NC(=O)c2ccc(N3CCC([C@@H](O)c4ccccc4-c4ccc(Cl)cc4)CC3)cc2)cc1S(=O)(=O)C(F)(F)F [AZD4320] + Cc1cc2ncnn2cc1Nc1ncc2c(n1)n(C1CCOCC1)c(=O)n2C [AZD7648] (first compound max 1 µM, 7x7, partner max 10 µM)	0.184

###

Test system: OV-90 (Ovarian Carcinoma)
Assay: Bliss excess, mean over the matrix (fraction); higher = more synergy
READOUT_TYPE: Bliss excess

MOLECULE	MEASUREMENT_TARGET	RECORDED_VALUE
O=C(c1cc(Cc2n[nH]c(=O)c3ccccc23)ccc1F)N1CCN(C(=O)C2CC2)CC1 [Olaparib] + CN(CC[C@H](CSC1=CC=CC=C1)NC2=C(C=C(C=C2)S(=O)(=O)NC(=O)C3=CC=C(C=C3)N4CCC(CC4)[C@H](C5=CC=CC=C5C6=CC=C(C=C6)Cl)O)S(=O)(=O)C(F)(F)F)CCO [AZD4320] (first compound max 10 µM, 7x7, partner max 1 µM)	OV-90 (Ovarian Carcinoma)	-0.0165
CN(CCO)CC[C@H](CSc1ccccc1)Nc1ccc(S(=O)(=O)NC(=O)c2ccc(N3CCC([C@@H](O)c4ccccc4-c4ccc(Cl)cc4)CC3)cc2)cc1S(=O)(=O)C(F)(F)F [AZD4320] + Cn1cnc2c(F)c(Nc3ccc(Br)cc3Cl)c(C(=O)NOCCO)cc21 [Selumetinib] (first compound max 1 µM, 7x7, partner max 3 µM)	OV-90 (Ovarian Carcinoma)	0.0304
COc1nnc2ccc(N3CCC(c4ccc(OCCN5CCN(C)C(=O)[C@H]5C)cc4)CC3)nn12 [AZD5153] + CCN(CCO)CCCOc1ccc2c(Nc3cc(CC(=O)Nc4cccc(F)c4)[nH]n3)ncnc2c1 [AZD2811] (first compound max 1 µM, 7x7, partner max 1 µM)	OV-90 (Ovarian Carcinoma)	-0.0226

###

Test system: OVTOKO (Ovarian Carcinoma)
Experiment: combination Emax (second highest fraction inhibited in the dose matrix, 72 h); higher = more inhibition; extreme values may be limits of the assay
Below is a list of entries, each paired with its recorded combination Emax value.

COMPOUND	MEASUREMENT_TARGET	combination Emax
Cn1cnc2c(F)c(Nc3ccc(Br)cc3Cl)c(C(=O)NOCCO)cc21 [Selumetinib] + CCN(CCO)CCCOc1ccc2c(Nc3cc(CC(=O)Nc4cccc(F)c4)[nH]n3)ncnc2c1 [AZD2811] (first compound max 10 µM, 7x7, partner max 1 µM)	OVTOKO (Ovarian Carcinoma)	0.227
COc1cccc(OCCCN)c1-c1cc(Nc2cnc(C#N)cn2)n[nH]1 [Prexasertib] + O=C(c1cc(Cc2n[nH]c(=O)c3ccccc23)ccc1F)N1CCN(C(=O)C2CC2)CC1 [Olaparib] (first compound max 1 µM, 7x7, partner max 10 µM)	OVTOKO (Ovarian Carcinoma)	0.52
CCN(CCO)CCCOc1ccc2c(Nc3cc(CC(=O)Nc4cccc(F)c4)[nH]n3)ncnc2c1 [AZD2811] + C=CCn1c(=O)c2cnc(Nc3ccc(N4CCN(C)CC4)cc3)nc2n1-c1cccc(C(C)(C)O)n1 [AZD1775] (first compound max 1 µM, partner max 1 µM)	OVTOKO (Ovarian Carcinoma)	0.419
COc1nnc2ccc(N3CCC(c4ccc(OCCN5CCN(C)C(=O)[C@H]5C)cc4)CC3)nn12 [AZD5153] + C[C@@H]1COCCN1C2=NC(=NC(=C2)C3(CC3)[S@](=N)(=O)C)C4=C5C=CNC5=NC=C4 [AZD6738] (first compound max 1 µM, 7x7, partner max 10 µM)	OVTOKO (Ovarian Carcinoma)	0.661
Cc1cc2ncnn2cc1Nc1ncc2c(n1)n(C1CCOCC1)c(=O)n2C [AZD7648] + CCN(CCO)CCCOc1ccc2c(Nc3cc(CC(=O)Nc4cccc(F)c4)[nH]n3)ncnc2c1 [AZD2811] (first compound max 10 µM, 7x7, partner max 1 µM)	OVTOKO (Ovarian Carcinoma)	0.232
COc1nnc2ccc(N3CCC(c4ccc(OCCN5CCN(C)C(=O)[C@H]5C)cc4)CC3)nn12 [AZD5153] + CC1(C)CCC(CN2CCN(c3ccc(C(=O)NS(=O)(=O)c4ccc(NCC5CCOCC5)c([N+](=O)[O-])c4)c(Oc4cnc5[nH]ccc5c4)c3)CC2)=C(c2ccc(Cl)cc2)C1 [Venetoclax] (first compound max 1 µM, 7x7, partner max 1 µM)	OVTOKO (Ovarian Carcinoma)	0.507
COc1nnc2ccc(N3CCC(c4ccc(OCCN5CCN(C)C(=O)[C@H]5C)cc4)CC3)nn12 [AZD5153] + Cn1cnc2c(F)c(Nc3ccc(Br)cc3Cl)c(C(=O)NOCCO)cc21 [Selumetinib] (first compound max 1 µM, 7x7, partner max 10 µM)	OVTOKO (Ovarian Carcinoma)	0.471
NC1(C(=O)N[C@@H](CCO)c2ccc(Cl)cc2)CCN(c2ncnc3[nH]ccc23)CC1 [Capivasertib] + Cn1cnc2c(F)c(Nc3ccc(Br)cc3Cl)c(C(=O)NOCCO)cc21 [Selumetinib] (first compound max 10 µM, 7x7, partner max 10 µM)	OVTOKO (Ovarian Carcinoma)	0.565
COc1cccc(OCCCN)c1-c1cc(Nc2cnc(C#N)cn2)n[nH]1 [Prexasertib] + CN(C)CCCOc1ccc(-c2ccc3ncc4c(c3c2)n(C2CCOCC2)c(=O)n4C)cn1 [AZD0156] (first compound max 1 µM, 7x7, partner max 1 µM)	OVTOKO (Ovarian Carcinoma)	0.647
COc1cc2c(cc1OCCCCCOc1cc3c(cc1OC)C(=O)N1C=C(C)C[C@H]1C=N3)N=C[C@@H]1CC(C)=CN1C2=O [SG3199] + O=C(c1cc(Cc2n[nH]c(=O)c3ccccc23)ccc1F)N1CCN(C(=O)C2CC2)CC1 [Olaparib] (first compound max 0.001 µM, 7x7, partner max 10 µM)	OVTOKO (Ovarian Carcinoma)	0.111
Cc1cc2ncnn2cc1Nc1ncc2c(n1)n(C1CCOCC1)c(=O)n2C [AZD7648] + C[C@@H]1COCCN1C2=NC(=NC(=C2)C3(CC3)[S@](=N)(=O)C)C4=C5C=CNC5=NC=C4 [AZD6738] (first compound max 10 µM, 7x7, partner max 10 µM)	OVTOKO (Ovarian Carcinoma)	0.344
COc1nnc2ccc(N3CCC(c4ccc(OCCN5CCN(C)C(=O)[C@H]5C)cc4)CC3)nn12 [AZD5153] + CN(CC[C@H](CSC1=CC=CC=C1)NC2=C(C=C(C=C2)S(=O)(=O)NC(=O)C3=CC=C(C=C3)N4CCC(CC4)[C@H](C5=CC=CC=C5C6=CC=C(C=C6)Cl)O)S(=O)(=O)C(F)(F)F)CCO [AZD4320] (first compound max 1 µM, 7x7, partner max 1 µM)	OVTOKO (Ovarian Carcinoma)	0.495
CC(=O)c1c(C)c2cnc(Nc3ccc(N4CCNCC4)cn3)nc2n(C2CCCC2)c1=O [Palbociclib] + CC1(C)CCC(CN2CCN(c3ccc(C(=O)NS(=O)(=O)c4ccc(NCC5CCOCC5)c([N+](=O)[O-])c4)c(Oc4cnc5[nH]ccc5c4)c3)CC2)=C(c2ccc(Cl)cc2)C1 [Venetoclax] (first compound max 10 µM, 7x7, partner max 1 µM)	OVTOKO (Ovarian Carcinoma)	0.336
C=CCn1c(=O)c2cnc(Nc3ccc(N4CCN(C)CC4)cc3)nc2n1-c1cccc(C(C)(C)O)n1 [AZD1775] + C[C@@H]1COCCN1C2=NC(=NC(=C2)C3(CC3)[S@](=N)(=O)C)C4=C5C=CNC5=NC=C4 [AZD6738] (first compound max 1 µM, partner max 10 µM)	OVTOKO (Ovarian Carcinoma)	0.56

###

System: NKM-1 (Acute Myeloid Leukemia)
Assay: Bliss excess, mean over the matrix (fraction); higher = more synergy
Below is a list of entries, each paired with its recorded Bliss excess value.

COMPOUND	Bliss excess
C[C@@H]1COCCN1c1cc(C2([S@](C)(=N)=O)CC2)nc(-c2ccnc3[nH]ccc23)n1 [AZD6738] + C1CC(C1)(C(=O)[O-])C(=O)[O-].N.N.[Pt+2] [Carboplatin] (first compound max 10 µM, 7x7, partner max 10 µM)	-0.0102
COc1cccc(OCCCN)c1-c1cc(Nc2cnc(C#N)cn2)n[nH]1 [Prexasertib] + CN(C)CCCOc1ccc(-c2ccc3ncc4c(c3c2)n(C2CCOCC2)c(=O)n4C)cn1 [AZD0156] (first compound max 1 µM, 7x7, partner max 1 µM)	-0.0165
Cc1cc2ncnn2cc1Nc1ncc2c(n1)n(C1CCOCC1)c(=O)n2C [AZD7648] + C[C@@H]1COCCN1C2=NC(=NC(=C2)C3(CC3)[S@](=N)(=O)C)C4=C5C=CNC5=NC=C4 [AZD6738] (first compound max 10 µM, 7x7, partner max 10 µM)	-0.0051
C=CCn1c(=O)c2cnc(Nc3ccc(N4CCN(C)CC4)cc3)nc2n1-c1cccc(C(C)(C)O)n1 [AZD1775] + CCc1c2c(nc3ccc(O)cc13)-c1cc3c(c(=O)n1C2)COC(=O)[C@]3(O)CC [SN-38] (first compound max 1 µM, partner max 0.3 µM)	0.0008
CN(CCO)CC[C@H](CSc1ccccc1)Nc1ccc(S(=O)(=O)NC(=O)c2ccc(N3CCC([C@@H](O)c4ccccc4-c4ccc(Cl)cc4)CC3)cc2)cc1S(=O)(=O)C(F)(F)F [AZD4320] + CC(=O)O[C@H]1C(=O)[C@@]2(C)[C@H]([C@H](OC(=O)c3ccccc3)[C@]3(O)C[C@H](OC(=O)[C@H](O)[C@@H](NC(=O)c4ccccc4)c4ccccc4)C(C)=C1C3(C)C)[C@]1(OC(C)=O)CO[C@@H]1C[C@@H]2O [Paclitaxel] (first compound max 1 µM, 7x7, partner max 3 µM)	0.0078
CN(C)CCCOc1ccc(-c2ccc3ncc4c(c3c2)n(C2CCOCC2)c(=O)n4C)cn1 [AZD0156] + CCN(CCO)CCCOc1ccc2c(Nc3cc(CC(=O)Nc4cccc(F)c4)[nH]n3)ncnc2c1 [AZD2811] (first compound max 1 µM, 7x7, partner max 1 µM)	-0.031
C[C@@H](Oc1cc(-c2cnn(C3CCNCC3)c2)cnc1N)c1c(Cl)ccc(F)c1Cl [Crizotinib] + Cn1cnc2c(F)c(Nc3ccc(Br)cc3Cl)c(C(=O)NOCCO)cc21 [Selumetinib] (first compound max 10 µM, 7x7, partner max 10 µM)	-0.0543
